Molecular target: UniProtKB P41144
Sequence (P41144 whole entry): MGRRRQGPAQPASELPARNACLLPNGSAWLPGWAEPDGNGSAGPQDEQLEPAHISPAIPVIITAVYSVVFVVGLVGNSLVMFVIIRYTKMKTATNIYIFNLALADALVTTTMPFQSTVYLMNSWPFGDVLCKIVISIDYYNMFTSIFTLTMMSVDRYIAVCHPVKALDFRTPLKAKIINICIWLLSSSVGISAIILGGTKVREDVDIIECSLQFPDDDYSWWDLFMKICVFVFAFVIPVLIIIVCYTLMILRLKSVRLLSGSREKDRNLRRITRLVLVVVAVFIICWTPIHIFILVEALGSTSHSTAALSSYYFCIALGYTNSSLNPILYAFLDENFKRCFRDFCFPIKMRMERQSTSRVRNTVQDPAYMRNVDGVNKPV
property: pIC50
The read-out pIC50 is expressed as -log10 of concentration in moles per litre.

Previously resolved entries follow.
>>> df
                                   compound  property  measurement
0  COC1(c2cccc(O)c2)CCCCC1CN(C)C (racemic) [(R,R/S,S)-ODMOMT, (+/−)-cis-Desmethylmethyltramadol]     pIC50         6.10
1  COC1(c2cccc(O)c2)CCCCC1CN(C)C [(R,R)-ODMOMT, (1R,2R)-(+)-Desmethylmethyltramadol]     pIC50         6.37
2  CN(C)CC1CCCCC1(O)c1cccc(O)c1 (single isomer, unassigned) [(R,R)-ODMT, O-desmethyltramadol, reference compound]     pIC50         5.79

Task item: Quick one: pIC50 for CO[C@@]1(c2cccc(O)c2)CCCC[C@H]1CN(C)C [(S,S)-ODMOMT, (1S,2S)-(−)-Desmethylmethyltramadol] ?
Reply: 5.61

Task item: Given CN(C)CC1CCCCC1(O)c1cccc(O)c1 (racemic) [(R,R/S,S)-ODMT, O-desmethyltramadol, reference compound] , state its recorded pIC50.
Reply: 5.50

----------
System: 5-HT uptake
Assay: Functional monoamine uptake: 5-HT uptake, rat brain synaptosomes
Assay type: biochemical
Conditions: rat brain synaptosomes, [3H]5-HT, 15 min./37° C.
Quick reference for pIC50 among some compounds
# log scale: pIC50 equals minus log10 of the concentration in mol/L

Answered cases to consult:
>>> df
                                   compound  measurement
0  COc1cccc(C2(OC)CCCCC2CN(C)C)c1 (racemic) [(R,R/S,S)-OMT, O-Methyltramadol]         6.26
1  COc1cccc([C@@]2(OC)CCCC[C@H]2CN(C)C)c1.O=C(O)/C=C/C(=O)O (relative stereo) [(R,S/S,R)-OMT]         6.54
2  CO[C@@]1(c2cccc(O)c2)CCCC[C@H]1CN(C)C [(S,S)-ODMOMT, (1S,2S)-(−)-Desmethylmethyltramadol]         5.30

Then there is this compound:
Task item: Give its pIC50 value. Item: CN(C)CC1CCCCC1(O)c1cccc(O)c1 (racemic) [(R,R/S,S)-ODMT, O-desmethyltramadol, reference compound]
Reply: 5.40

----------
Molecular target: μ receptor (Rattus norvegicus, UniProt P33535)
Sequence (P33535 whole entry): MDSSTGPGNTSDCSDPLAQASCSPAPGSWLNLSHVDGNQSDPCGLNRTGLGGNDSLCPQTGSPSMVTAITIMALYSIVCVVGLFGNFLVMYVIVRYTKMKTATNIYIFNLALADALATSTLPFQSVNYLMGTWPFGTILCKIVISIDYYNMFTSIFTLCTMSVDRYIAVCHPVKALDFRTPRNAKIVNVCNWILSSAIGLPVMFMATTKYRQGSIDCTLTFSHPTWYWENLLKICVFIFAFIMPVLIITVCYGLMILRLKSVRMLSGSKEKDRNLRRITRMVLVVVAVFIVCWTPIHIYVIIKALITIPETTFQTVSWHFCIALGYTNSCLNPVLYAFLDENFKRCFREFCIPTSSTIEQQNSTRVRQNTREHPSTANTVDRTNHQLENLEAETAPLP
Assay: biochemical
Settings: IC50, opioid binding, rat cerebral cortex, [3H]DAMGO 1 nM, 60 minutes/22° C.
property: IC50 (nM)
// note: answer is a bare numeric in nM

Task item: Lab note: need IC50 for COc1cccc(C2(OC)CCCCC2CN(C)C)c1 [(R,R)-OMT, (R,R)-(+)-O-Methyltramadol] on μ receptor (Rattus norvegicus, UniProt P33535), anyone have it?
Reply: 7670

Task item: Which measured IC50 belongs to COC1(c2cccc(O)c2)CCCCC1CN(C)C (racemic) [(R,R/S,S)-ODMOMT, (+/−)-cis-Desmethylmethyltramadol] , tested on μ receptor (Rattus norvegicus, UniProt P33535)?
Reply: 56

----------
Measured IC50 of individual entries
Target: UniProt A0A286XTF2
Sequence (A0A286XTF2 1-366): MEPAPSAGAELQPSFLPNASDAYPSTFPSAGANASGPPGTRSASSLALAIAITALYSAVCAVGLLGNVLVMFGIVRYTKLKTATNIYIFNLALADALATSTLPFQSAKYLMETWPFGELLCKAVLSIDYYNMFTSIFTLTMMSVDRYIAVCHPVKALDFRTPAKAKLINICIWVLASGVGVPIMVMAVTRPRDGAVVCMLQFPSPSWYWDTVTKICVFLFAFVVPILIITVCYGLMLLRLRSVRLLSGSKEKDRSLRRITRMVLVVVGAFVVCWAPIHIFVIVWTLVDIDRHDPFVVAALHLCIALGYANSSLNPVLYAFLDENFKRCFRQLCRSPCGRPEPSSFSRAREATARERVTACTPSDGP
# number only, unit µM dropped from output

Use these answered entries as a reference point.
>>> print(df.to_string())
                                   molecule     target_of_assay  property  unit_descriptor  measurement
0  COC1(c2cccc(O)c2)CCCCC1CN(C)C (racemic) [(R,R/S,S)-ODMOMT, (+/−)-cis-Desmethylmethyltramadol]  UniProt A0A286XTF2      IC50               µM         4.92
1  COC1(c2cccc(O)c2)CCCCC1CN(C)C [(R,R)-ODMOMT, (1R,2R)-(+)-Desmethylmethyltramadol]  UniProt A0A286XTF2      IC50               µM         2.85

Task item: Entry CN(C)CC1CCCCC1(O)c1cccc(O)c1 (racemic) [(R,R/S,S)-ODMT, O-desmethyltramadol, reference compound] , system UniProt A0A286XTF2: what IC50 was measured?
Reply: 7.71

Task item: I'm curious: which IC50 was measured for CN(C)CC1CCCCC1(O)c1cccc(O)c1 (single isomer, unassigned) [(R,R)-ODMT, O-desmethyltramadol, reference compound] tested on UniProt A0A286XTF2?
Reply: 4.53

----------
Tested on: 5-HT uptake
Experiment: Functional monoamine uptake: 5-HT uptake, rat brain synaptosomes
Assay type: biochemical
Conditions: rat brain synaptosomes, [3H]5-HT, 15 min./37° C.
property: IC50 (nM)
Give just the number in nM; leave the unit off.

Consider the following illustrative entries.
>>> df
                                   compound  property  measurement
0  COC1(c2cccc(O)c2)CCCCC1CN(C)C (racemic) [(R,R/S,S)-ODMOMT, (+/−)-cis-Desmethylmethyltramadol]      IC50         2600
1  COC1(c2cccc(O)c2)CCCCC1CN(C)C [(R,R)-ODMOMT, (1R,2R)-(+)-Desmethylmethyltramadol]      IC50         2100
2  CN(C)CC1CCCCC1(O)c1cccc(O)c1 (single isomer, unassigned) [(R,R)-ODMT, O-desmethyltramadol, reference compound]      IC50         3300

Task item: What IC50 value was documented for this compound, COc1cccc(C2(OC)CCCCC2CN(C)C)c1 [(R,R)-OMT, (R,R)-(+)-O-Methyltramadol] ?
Reply: 650

----------
Molecular target: μ receptor (Rattus norvegicus)
Conditions: read-out: IC50, opioid binding, μ; rat cerebral cortex, [3H]DAMGO 1 nM, 60 minutes/22° C.
property: pIC50
Units for pIC50: none; it is -log10 of a concentration expressed in mol/L.

Task item: Any idea what pIC50 was measured for COc1cccc([C@@]2(OC)CCCC[C@H]2CN(C)C)c1.O=C(O)/C=C/C(=O)O (relative stereo) [(R,S/S,R)-OMT] ?
Reply: 5.48

----------
Molecular target: μ receptor (Rattus norvegicus, UniProt P33535)
Assay: biochemical
Conditions: IC50, opioid binding, rat cerebral cortex, [3H]DAMGO 1 nM, 60 minutes/22° C.
property: IC50 (µM)
Express your answer in µM, writing the number without its unit.

                                   compound  measurement
0  COC1(c2cccc(O)c2)CCCCC1CN(C)C [(R,R)-ODMOMT, (1R,2R)-(+)-Desmethylmethyltramadol]         0.03
1  COc1cccc(C2(OC)CCCCC2CN(C)C)c1 (racemic) [(R,R/S,S)-OMT, O-Methyltramadol]         7.87

Task item: Please look up its IC50: CO[C@@]1(c2cccc(O)c2)CCCC[C@H]1CN(C)C [(S,S)-ODMOMT, (1S,2S)-(−)-Desmethylmethyltramadol]
Reply: 0.566
